biological target: bee venom PLA2 (Apis mellifera); experiment: biochemical; details: n = 2; read-out: PLA2 IC50
Sequence (P00630 34-167 limits assumed): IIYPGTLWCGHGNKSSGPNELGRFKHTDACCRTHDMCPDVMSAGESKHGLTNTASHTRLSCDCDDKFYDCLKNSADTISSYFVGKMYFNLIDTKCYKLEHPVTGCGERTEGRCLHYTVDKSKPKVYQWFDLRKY
READOUT_LABEL: IC50 (µM)
Just the number in µM, nothing appended.

GIVEN_SMILES	IC50 / µM
CN(C)CCc1c[nH]c2cc(Br)c(Br)cc12	770
C[N+](C)(C)[C@@H](Cc1c[nH]c2cc(Br)c(Br)cc12)C(=O)[O-]	200
C[C@H]1CC[C@H]2C(C)(C)CCC[C@]23Oc2ccc(O)cc2C[C@]13C	460
O=Cc1c[nH]c2cc(Br)ccc12	1270
CNCCc1c[nH]c2cc(Br)c(Br)cc12	330

Query: Answer with IC50 of `NCCc1c[nH]c2cc(Br)c(Br)cc12` measured for bee venom PLA2 (Apis mellifera).
Result: 620

Query: Tell me IC50 of `COC(=O)C(=O)c1c[nH]c2ccccc12` when tested on bee venom PLA2 (Apis mellifera).
Result: 1110

Query: # return IC50 of `CN[C@@H](Cc1c[nH]c2cc(Br)c(Br)cc12)C(=O)O` (system: bee venom PLA2 (Apis mellifera))
Result: 300

Source of measurements: paper PMC3111189
